Listed here are molecules together with their documented growth.
Tested on: T-47D breast
Assay: NCI-60 one-dose screen, 48 h (100 = growth as untreated, 0 = no growth, -100 = all killed)
Settings: 10 µM unless noted
About 83,000 compounds went through this panel and 20% of them were active in at least one assay; those are over-represented in the sample as a whole.
Output spec: scalar in %, unitless text.

Sample records with growth:
molecule: Cc1nc(-c2ccccc2O)ccc1C(=O)N=Nc1c(O)[nH]c2ccc(Br)cc12
growth [%]: 88.9
//
molecule: Brc1ccccc1/C=N/Nc1nc(N/N=C/c2ccccc2Br)nc(N2CCOCC2)n1
growth [%]: 79
//
molecule: C=CCn1c(SCC(=O)Nc2ccc(C(=O)/C=C/c3ccc(C)cc3)cc2)nnc1-c1c[nH]c2ccccc12
growth [%]: 70
//
molecule: O=S(=O)(Nc1cccc2ccccc12)c1ccc(-c2cnc(C3CC3)o2)cc1
growth [%]: 62.4
//
molecule: COCCNc1ccc2ncc(C#Cc3cncc(C(=O)Nc4ccc(CN5CCN(C)CC5)c(C(F)(F)F)c4)c3)n2n1
growth [%]: -7.3
//
molecule: CCCCCc1ccc(S(=O)(=O)Nc2cccc(-c3csc(NC(=O)CN4CCN(C)CC4)n3)c2)cc1
growth [%]: 67.2
//
molecule: ClC(Cl)c1nc(-c2ccco2)n2nc(-c3ccccc3)cc2n1
growth [%]: 32.8
//
molecule: Cc1nc2ncc(-c3ccc4ncnc(NCc5ccccc5)c4c3)cc2[nH]1
growth [%]: 1.3

Please find the next molecule below.
Reported growth, molecule O=C(NNc1nc2cc(F)ccc2n2c(CN3CC4CNCC4C3)ccc12)c1cnccn1 (centres undefined) : ____
37.8

---

System: SK-MEL-5 melanoma
Assay: NCI-60 one-dose screen, 48 h
Settings: 10 µM unless noted
Compounds without any hit were thinned out: in the full panel of roughly 83,000, 20% have a hit. Activity calls are given as the source filed them. How the source made its calls: active means growth percent below 10; inactive means the rest.
Please answer using one outcome listed in label 1 (active), label 0 (inactive)

Consider the following illustrative entries.
compound: CC(C)(C)c1ccc(C(=O)Nc2sc3c(c2C(N)=O)CC/C(=N\O)C3)cc1
group.label: label 1
//
compound: COc1ccc(/C=N/NC(=O)c2cn(C3CC3)c3c(OC)c(N4CC5CCCNC5C4)c(F)cc3c2=O)cc1 (stereo not given)
group.label: label 0
//
compound: C=C1CC[C@@H]2[C@]3(C)COC(c4ccccc4)O[C@@H]3CC[C@@]2(C)[C@@H]1C/C=C1/C(=O)OC[C@H]1O (stereo not given in full)
group.label: label 0

What outcome does the record of this test show for `O=c1[nH]c(Sc2sc3ccc(Cl)cc3c2CBr)nc(=S)[nH]1` ?
label 0

What outcome does the record of this test show for `N#Cc1cn(Cc2ccc(Cl)cc2Cl)c(C(=O)c2ccc(Br)cc2)c1N` ?
label 0

---

System: UACC-62 melanoma
Assay: NCI-60 one-dose screen, 48 h
Conditions: 10 µM unless noted
This is part of a sample that, as a whole, favours compounds with a hit. Of some 83,000 tested, about 20% had one in any assay. Activity calls are given as the source filed them. Rule for the calls: active = growth percent below 10; inactive = the rest.
Please answer using one outcome listed in T for active, F for inactive

compound: CC/C(=C/c1c(O)cccc1OC)c1ccc2c(OC)cccc2[o+]1
group.label: F

compound: CC(=O)N1N=C(c2cccc(-n3cccc3)c2)CC1c1cccc(F)c1 (stereo not given)
group.label: F

compound: O=C(NNc1nc2cc(F)c(F)cc2n2c(CN3CC4CNCC4C3)ccc12)c1ncccn1 (stereo not given)
group.label: T

compound: N/C(=N\C(N)=N\c1nc2ccccc2s1)c1ccc2ccccc2c1
group.label: F

compound: COc1ccc(N2CCN(C3=C(Cl)C(=O)C(C)=C(C)C3=O)CC2)cc1
group.label: F

What outcome does the record of this test show for `Cc1ccc(-c2nnc(SCc3ccc(O)c4ncccc34)n2-c2ccccc2)cc1` ?
T

What outcome does the record of this test show for `CC1(C)CC[C@]2(CN)CC[C@]3(C)C(=CC[C@@H]4[C@@]5(C)CCCNC(C)(C)[C@@H]5CC[C@]43C)[C@H]2C1` ?
F
